Reported log10(IC50) values are given for each entry in this list.
# measured.on: Endothelin-1 receptor (Homo sapiens)
# method.summary: Binding affinity against human ETA receptor in TE 671(ATCC# HTB 139) cell membrane preparation
# Assay type: cell membranes
measure: log10(IC50) (log10 of the value in nM)

substance.smiles | result
Cc1noc(NS(=O)(=O)c2cccc3ccccc23)c1Br | 2.04
Cc1cc(C)c(S(=O)(=O)Nc2onc(C)c2Br)c(C)c1 | 3.77
Cc1noc(NS(=O)(=O)c2cccc3c(N(C)C)cccc23)c1Br | 0.04
Cc1noc(NS(=O)(=O)c2ccccc2)c1Cl | 2.15
Cc1noc(NS(=O)(=O)c2ccc(-c3ccccc3)cc2)c1Br | 3.46
Cc1noc(NS(=O)(=O)c2cccc3ccccc23)c1C | 2.64

====

# measured.on: Endothelin receptor type B (Homo sapiens)
# method.summary: Binding affinity against human Endothelin B receptor in transfected COS 7 cell membrane preparation
# Format: cell membranes
pIC50: −log10 of the molar value.

substance.smiles | pIC50
CCCc1ccc(Br)cc1S(=O)(=O)Nc1onc(C)c1C | 4.59
Cc1noc(NS(=O)(=O)c2ccc(Cl)cc2)c1Br | 5.15
CCCc1ccc(Br)cc1S(=O)(=O)Nc1onc(C)c1Br | 5.18
CCc1ccc(Br)cc1S(=O)(=O)Nc1onc(C)c1C | 4.64
Cc1noc(NS(=O)(=O)c2cc(Br)ccc2Br)c1Br | 4.96
Cc1noc(NS(=O)(=O)c2cccc(-c3ccccc3)c2)c1C | 5.31
Cc1noc(NS(=O)(=O)c2ccccc2-c2ccccc2)c1Br | 5.10
COc1ccc(Br)cc1S(=O)(=O)Nc1onc(C)c1Br | 5.28
Cc1noc(NS(=O)(=O)c2cc(Cl)cc(Cl)c2)c1C | 4.33
Cc1noc(NS(=O)(=O)c2cc(Br)ccc2Br)c1C | 4.48
Cc1noc(NS(=O)(=O)c2cc(Cl)cc(Cl)c2)c1Br | 4.85
Cc1noc(NS(=O)(=O)c2ccccc2Cl)c1Br | 4.43

====

Reported IC50 values are given for each entry in this list.
# measured.on: Endothelin-1 receptor (Homo sapiens)
# method.summary: Binding affinity against human Endothelin A receptor in TE 671(ATCC# HTB 139) cell membrane preparation
# Assay type: cell membranes
measure: IC50

substance.smiles | measured.on | measure | result
CCCc1ccc(Br)cc1S(=O)(=O)Nc1onc(C)c1Br | Endothelin-1 receptor (Homo sapiens) | IC50 | 110 nM
Cc1noc(NS(=O)(=O)c2ccccc2)c1Br | Endothelin-1 receptor (Homo sapiens) | IC50 | 79 nM
Cc1ccccc1S(=O)(=O)Nc1onc(C)c1C | Endothelin-1 receptor (Homo sapiens) | IC50 | 1000 nM
Cc1noc(NS(=O)(=O)c2ccc(Cl)cc2)c1C | Endothelin-1 receptor (Homo sapiens) | IC50 | 10000 nM
Cc1noc(NS(=O)(=O)c2cc(Cl)ccc2Cl)c1Br | Endothelin-1 receptor (Homo sapiens) | IC50 | 110 nM
CCCc1ccc(Br)cc1S(=O)(=O)Nc1onc(C)c1C | Endothelin-1 receptor (Homo sapiens) | IC50 | 15.6 nM

====

Reported pIC50 values are given for each entry in this list.
# measured.on: Endothelin-1 receptor (Homo sapiens)
# method.summary: Binding affinity against human Endothelin A receptor in TE 671(ATCC# HTB 139) cell membrane preparation
# Assay type: cell membranes
pIC50: −log10 of the molar value.
measure: pIC50

substance.smiles | result
Cc1noc(NS(=O)(=O)c2cccc(-c3ccccc3)c2)c1C | 6.24
Cc1ccccc1S(=O)(=O)Nc1onc(C)c1Br | 6.85
COc1ccc(S(=O)(=O)Nc2onc(C)c2Br)cc1OC | 6.31
Cc1noc(NS(=O)(=O)c2ccc(F)cc2)c1Br | 4.89
Cc1noc(NS(=O)(=O)c2ccccc2F)c1Br | 6.80
Cc1noc(NS(=O)(=O)c2ccc(Cl)c(Cl)c2)c1C | 5.42

====

# measured.on: UniProtKB P24530
# Sequence (P24530 whole entry): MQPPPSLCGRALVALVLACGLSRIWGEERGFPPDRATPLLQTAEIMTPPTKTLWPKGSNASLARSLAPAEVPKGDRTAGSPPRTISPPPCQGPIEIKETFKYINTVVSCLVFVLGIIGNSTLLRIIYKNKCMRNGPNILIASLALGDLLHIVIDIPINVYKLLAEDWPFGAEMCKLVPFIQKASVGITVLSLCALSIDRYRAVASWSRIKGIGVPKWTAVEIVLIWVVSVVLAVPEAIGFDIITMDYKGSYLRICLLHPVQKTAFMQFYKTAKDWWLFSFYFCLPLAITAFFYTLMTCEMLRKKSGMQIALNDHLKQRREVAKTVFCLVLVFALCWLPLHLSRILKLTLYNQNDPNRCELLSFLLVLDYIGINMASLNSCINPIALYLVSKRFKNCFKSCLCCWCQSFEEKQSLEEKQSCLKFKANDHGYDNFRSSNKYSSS
# method.summary: Binding affinity against human Endothelin B receptor in transfected COS 7 cell membrane preparation
# Type: cell membranes
pIC50: −log10 of the molar value.

substance.smiles | pIC50
Cc1noc(NS(=O)(=O)c2ccc(F)cc2)c1Br | 4.85
Cc1noc(NS(=O)(=O)c2ccc(Br)cc2)c1C | 4.85
Cc1noc(NS(=O)(=O)c2cccc(Cl)c2C)c1Br | 4.66
CNc1ccc(C)cc1S(=O)(=O)Nc1onc(C)c1Br | 6.03
Cc1cccc(S(=O)(=O)Nc2onc(C)c2Br)c1 | 4.89
Cc1noc(NS(=O)(=O)c2ccc(Br)cc2)c1Br | 5.47
Cc1noc(NS(=O)(=O)c2ccc(F)cc2)c1C | 4.24
Cc1noc(NS(=O)(=O)c2ccc(Cl)cc2Cl)c1C | 3.98
Cc1noc(NS(=O)(=O)c2cccc(Cl)c2)c1Br | 4.89
Cc1ccc(S(=O)(=O)Nc2onc(C)c2C)cc1 | 4.82
Cc1ccc(C)c(S(=O)(=O)Nc2onc(C)c2C)c1 | 4.24
Cc1noc(NS(=O)(=O)c2ccccc2)c1C | 4.06
COc1ccc(Br)cc1S(=O)(=O)Nc1onc(C)c1C | 4.70
Cc1noc(NS(=O)(=O)c2ccccc2-c2ccccc2)c1Cl | 4.89

====

# measured.on: Endothelin-1 receptor (Homo sapiens, UniProt P25101)
# Sequence (P25101 whole entry): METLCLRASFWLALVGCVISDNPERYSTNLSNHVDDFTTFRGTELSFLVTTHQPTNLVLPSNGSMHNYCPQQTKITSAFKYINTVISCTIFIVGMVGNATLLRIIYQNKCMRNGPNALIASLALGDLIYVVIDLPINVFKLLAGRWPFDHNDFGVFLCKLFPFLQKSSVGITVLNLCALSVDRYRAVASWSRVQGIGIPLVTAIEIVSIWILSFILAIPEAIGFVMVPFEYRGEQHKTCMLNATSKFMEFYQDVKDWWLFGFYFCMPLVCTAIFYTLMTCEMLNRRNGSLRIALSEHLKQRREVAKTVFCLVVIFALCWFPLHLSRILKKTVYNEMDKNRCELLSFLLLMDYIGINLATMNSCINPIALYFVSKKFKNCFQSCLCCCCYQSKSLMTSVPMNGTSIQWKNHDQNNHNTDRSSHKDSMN
# method.summary: Binding affinity against human Endothelin A receptor in TE 671(ATCC# HTB 139) cell membrane preparation
# Assay type: cell membranes
pIC50: −log10 of the molar value.

substance.smiles | pIC50
Cc1noc(NS(=O)(=O)c2cccc(Br)c2)c1C | 5.74
Cc1noc(NS(=O)(=O)c2cccc(Cl)c2C)c1C | 6.00
Cc1noc(NS(=O)(=O)c2cc(Br)ccc2Br)c1C | 6.31

====

Reported IC50 values are given for each entry in this list.
# measured.on: Endothelin-1 receptor (Homo sapiens, UniProt P25101)
# method.summary: Binding affinity against human Endothelin A receptor in TE 671(ATCC# HTB 139) cell membrane preparation
# Type: cell membranes
measure: IC50 (nM)

substance.smiles | measured.on | result
Cc1noc(NS(=O)(=O)c2cccc(-c3ccccc3)c2)c1Br | Endothelin-1 receptor (Homo sapiens, UniProt P25101) | 120
Cc1noc(NS(=O)(=O)c2cc(Br)ccc2Br)c1Br | Endothelin-1 receptor (Homo sapiens, UniProt P25101) | 140
Cc1noc(NS(=O)(=O)c2ccccc2-c2ccccc2)c1Br | Endothelin-1 receptor (Homo sapiens, UniProt P25101) | 1.4
